EXPERIMENT SUMMARY: in vivo pharmacokinetic study in SD rats
CONDITION CONTEXT: rat, in vivo, 1 mg/kg, IV
ASSAY ENDPOINT: half-life (min)
Write down the numeric answer in min and omit the unit.

// lookup half-life for CN(C)C(=O)c1nccc(Nc2c(NC(C#CC3CCC3)C3(C)CC(F)(F)CO3)c(=O)c2=O)c1O (stereo not shown) [compound 110] 17.4

---

EXPERIMENT SUMMARY: in vivo pharmacokinetic study in SD rats
CONDITION CONTEXT: rat, in vivo, 1 mg/kg, IV
Protocol: 2.2.1 Rats: SD rats, SPF grade, 6 rats per compound, male, body weight range 180-200 g. 2.2.2 Housing conditions: The animals were housed in an SPF-grade animal facility with free access to food and water, three per cage, under a 12/12-hour light/dark cycle (7:00 am/7:00 pm), at a temperature of 23 ± 3°C. […] The data were analyzed using WinNonlin via a non-compartmental model to obtain PK parameters (Cmax, AUC0-last, AUCinf, T1/2, etc., selected based on different routes of administration). […]
ASSAY ENDPOINT: Cmax (ng/mL)
Give the number; ng/mL is assumed, so skip it.

Past entries and their recorded results:
CN(C)C(=O)c1nccc(Nc2c(NC(c3nc(C(F)(F)F)ccc3F)C3(C)CC(F)(F)CO3)c(=O)c2=O)c1O (stereo not drawn) [compound 098] = 2740
Cc1cccnc1C(Nc1c(Nc2ccnc(C(=O)N(C)C)c2O)c(=O)c1=O)C1(C)CCC(F)(F)C1 (single isomer, unassigned) [125B] = 3050

// moving on: another record for Cmax
Using the record for CN(C)C(=O)c1nccc(Nc2c(NC(C#CC3CCC3)C3(C)CC(F)(F)CO3)c(=O)c2=O)c1O (stereo not drawn) [compound 110] , report its Cmax. 3780

---

TGT: human CCR6 (Homo sapiens, UniProt P51684)
Sequence (P51684 whole entry): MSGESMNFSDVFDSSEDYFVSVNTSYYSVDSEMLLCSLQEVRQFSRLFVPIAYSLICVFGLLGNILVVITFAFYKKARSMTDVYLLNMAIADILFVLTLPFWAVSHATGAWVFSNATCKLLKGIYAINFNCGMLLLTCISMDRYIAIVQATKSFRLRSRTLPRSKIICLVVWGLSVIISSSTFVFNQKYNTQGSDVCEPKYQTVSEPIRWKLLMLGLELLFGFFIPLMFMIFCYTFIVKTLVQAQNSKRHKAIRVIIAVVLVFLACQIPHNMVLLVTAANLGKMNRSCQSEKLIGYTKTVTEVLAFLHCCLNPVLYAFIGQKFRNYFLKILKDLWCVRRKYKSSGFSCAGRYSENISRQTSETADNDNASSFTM
EXPERIMENT SUMMARY: human CCR6 calcium flux activity (FLIPR, HEK293 cells stably expressing human CCR6, CCL20 stimulation)
CONDITION CONTEXT: HEK293 cells stably expressing human CCR6, EC80 human MIP-3 alpha/CCL20; read-out: CCR6 inhibitory activity, IC50
List of pIC50 values.
Note: pIC50 values are expressed as the negative base-10 logarithm of concentration in M.

CN(C)C(=O)c1nccc(Nc2c(N[C@@H](c3nccc(F)c3F)C3(C)CCCC3)c(=O)c2=O)c1O = 8.19

pIC50 of CC1([C@@H](Nc2c(Nc3ccnc(C(=O)N4CCOCC4)c3O)c(=O)c2=O)c2nc(F)ccc2F)CCCC1 on human CCR6 (Homo sapiens, UniProt P51684)? 8.72

Let us now turn to CN(C)C(=O)c1nccc(Nc2c(N[C@@H](c3nc(Cl)ccc3F)[C@@]3(C)CC(F)(F)CO3)c(=O)c2=O)c1O [068B] 8.28

Moving on to the next compound: Cc1cccnc1C(Nc1c(Nc2ccnc(C(=O)N(C)C)c2O)c(=O)c1=O)C1(C)CC2CC2C1 (centres unmarked) 6.74

---

EXPERIMENT SUMMARY: in vivo pharmacokinetic study in SD rats
CONDITION CONTEXT: male, rat, plasma, 1 mg/kg PO vs 1 mg/kg IV, read-out: Oral bioavailability F (%)
ASSAY ENDPOINT: bioavailability (%)
Entry rule: numbers only, all in %.

CN(C)C(=O)c1nccc(Nc2c(N[C@@H](c3nc(CF)ccc3F)C3(C)CCCC3)c(=O)c2=O)c1O = 22.8
Cc1cc(F)cnc1[C@H](Nc1c(Nc2ccnc(C(=O)N(C)C)c2O)c(=O)c1=O)[C@@]1(C)CC(F)(F)CO1 [093B] = 51.6
CN(C)C(=O)c1nccc(Nc2c(N[C@@H](c3nc(C(F)F)ccc3F)C3(C)CCCC3)c(=O)c2=O)c1O = 61.8

What does the data say about its bioavailability? Entry: CN(C)C(=O)c1nccc(Nc2c(N[C@@H](c3nc(F)ccc3F)C3(C)CCCC3)c(=O)c2=O)c1O 30.5

What do we get for Cc1cccnc1[C@H](Nc1c(Nc2ccnc(C(=O)N(C)C)c2O)c(=O)c1=O)[C@]1(C)CC(F)(F)CO1 (single isomer, unassigned) [128B] ? 36.7

Same question, Cc1cccnc1[C@H](Nc1c(Nc2ccnc(C(=O)N(C)C)c2O)c(=O)c1=O)C1(C)CCCC1 this time 49.1

Now this one: Cc1cccnc1[C@H](Nc1c(Nc2ccnc(C(=O)N(C)C)c2O)c(=O)c1=O)C1(C)CC(F)(F)C1 42.5

Request: CN(C)C(=O)c1nccc(Nc2c(N[C@@H](c3nc(Cl)ccc3F)C3(C)CCCC3)c(=O)c2=O)c1O 33.1

---

Quick reference for IC50 among some compounds
TGT: human CXCR2 (Homo sapiens)
Sequence (P25025 whole entry): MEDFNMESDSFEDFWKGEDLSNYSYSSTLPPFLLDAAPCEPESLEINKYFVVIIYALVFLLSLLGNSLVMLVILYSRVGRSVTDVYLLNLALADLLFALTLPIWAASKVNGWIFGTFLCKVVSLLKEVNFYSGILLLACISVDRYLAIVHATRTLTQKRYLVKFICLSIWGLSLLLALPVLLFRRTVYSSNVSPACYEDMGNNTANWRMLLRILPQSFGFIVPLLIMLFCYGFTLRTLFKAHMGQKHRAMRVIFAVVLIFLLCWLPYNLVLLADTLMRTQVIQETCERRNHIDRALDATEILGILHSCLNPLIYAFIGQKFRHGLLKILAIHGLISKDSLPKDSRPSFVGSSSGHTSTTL
EXPERIMENT SUMMARY: human CXCR2 calcium flux activity (FLIPR, HEK293 cells stably expressing human CXCR2, IL-8 stimulation)
CONDITION CONTEXT: HEK293 cells stably expressing human CXCR2, EC80 human IL-8; read-out: CXCR2 inhibitory activity, IC50
Output spec: scalar in nM, unitless text.

Reference set (3 entries):
CN(C)C(=O)c1nccc(Nc2c(N[C@@H](C#CC3CCC3)[C@]3(C)CC(F)(F)CO3)c(=O)c2=O)c1O (single isomer, unassigned) [110A] = 297
CN(C)C(=O)c1nccc(Nc2c(N[C@@H](c3nc(Cl)ccc3F)C3(C)CCCC3)c(=O)c2=O)c1O [compound 053] = 1750
CC#C[C@H](Nc1c(Nc2ccnc(C(=O)N(C)C)c2O)c(=O)c1=O)C1(C)CCCC1 [compound 113] = 1480

# input for lookup
IC50 lookup needed for Cc1ccc(C)c([C@H](Nc2c(Nc3ccnc(C(=O)N(C)C)c3O)c(=O)c2=O)C2(C)CCCC2)n1 [compound 051] , thanks. 31400

---

# Liver microsome T1-2 (min) Rat listing for each entry below
EXPERIMENT SUMMARY: in vitro liver microsome metabolic stability, rat
Type: in vitro ADME
CONDITION CONTEXT: Rat liver microsomes, 37°C
Kindly answer with a numeric value in min, unit omitted.

Please review the following examples before continuing.
Cc1cccnc1[C@H](Nc1c(Nc2ccnc(C(=O)N(C)C)c2O)c(=O)c1=O)[C@@]1(C)CC(F)(F)CO1 (single isomer, unassigned) [128A] = 78.14
CC#CC(Nc1c(Nc2ccnc(C(=O)N(C)C)c2O)c(=O)c1=O)C1(C)CC(F)(F)CO1 (centres unmarked) = 560.45
CN(C)C(=O)c1nccc(Nc2c(N[C@@H](c3ccc(Cl)cn3)C3(C)CCCC3)c(=O)c2=O)c1O = 54.23

Any idea what its Liver microsome T1-2 (min) Rat is? The compound is CN(C)C(=O)c1nccc(Nc2c(NC(c3ncccn3)C3(C)CCCC3)c(=O)c2=O)c1O (racemic) 324.15

What do you get for CC#C[C@H](Nc1c(Nc2ccnc(C(=O)N(C)C)c2O)c(=O)c1=O)C1(C)CCCC1 ? 124.51

What about Cc1nccnc1[C@H](Nc1c(Nc2ccc(F)c(C(=O)N(C)C)c2O)c(=O)c1=O)C1(C)CCCC1 ? 109.49

// repeat for Cc1cccnc1[C@H](Nc1c(Nc2ccc(Cl)c(C(=O)N(C)C)c2O)c(=O)c1=O)C1(C)CC(F)(F)C1 and report 39.67

Queued: Cc1cccnc1C(Nc1c(Nc2ccc(Cl)c(C(=O)N(C)C)c2O)c(=O)c1=O)C1(C)CCOC1 (centres unmarked) 290.38

Please answer likewise for CN(C)C(=O)c1nccc(Nc2c(N[C@@H](c3nc(Cl)ccc3F)[C@@]3(C)CC(F)(F)CO3)c(=O)c2=O)c1O [068B] 570.62

Here is the next compound: Cc1cc(F)cnc1[C@H](Nc1c(Nc2ccnc(C(=O)N(C)C)c2O)c(=O)c1=O)[C@]1(C)CC(F)(F)CO1 [093A] 110.15

Can you check CN(C)C(=O)c1nccc(Nc2c(N[C@@H](c3cccc(F)n3)C3(C)CCCC3)c(=O)c2=O)c1O next? 85.28

---

EXPERIMENT SUMMARY: in vivo pharmacokinetic study in SD rats
CONDITION CONTEXT: male, rat, plasma, 1 mg/kg, PO
ASSAY ENDPOINT: Cmax (ng/mL)
Provide the reading as a plain figure in ng/mL.

Consider the compound shown here: CN(C)C(=O)c1nccc(Nc2c(N[C@@H](C#CC3CCC3)[C@]3(C)CC(F)(F)CO3)c(=O)c2=O)c1O (single isomer, unassigned) [110A] What is its recorded Cmax? 311

Next record, please: Cc1cccnc1[C@H](Nc1c(Nc2ccnc(C(=O)N(C)C)c2O)c(=O)c1=O)C12CC(C1)C2 [compound 077] 158

Try this compound too: Cc1cccnc1[C@H](Nc1c(Nc2ccnc(C(=O)N(C)C)c2O)c(=O)c1=O)C1(C)CCCC1 [compound 018] 920

Let us now turn to Cc1cccnc1[C@H](Nc1c(Nc2ccnc(C(=O)N(C)C)c2O)c(=O)c1=O)C1(C)CC(F)(F)C1 [compound 079] 566
